# System tested: DPAP1 (Plasmodium falciparum, UniProt Q8IIJ9)
# Construct: native enzyme in live parasites (mature schizonts)
# Sequence (Q8IIJ9 1-700): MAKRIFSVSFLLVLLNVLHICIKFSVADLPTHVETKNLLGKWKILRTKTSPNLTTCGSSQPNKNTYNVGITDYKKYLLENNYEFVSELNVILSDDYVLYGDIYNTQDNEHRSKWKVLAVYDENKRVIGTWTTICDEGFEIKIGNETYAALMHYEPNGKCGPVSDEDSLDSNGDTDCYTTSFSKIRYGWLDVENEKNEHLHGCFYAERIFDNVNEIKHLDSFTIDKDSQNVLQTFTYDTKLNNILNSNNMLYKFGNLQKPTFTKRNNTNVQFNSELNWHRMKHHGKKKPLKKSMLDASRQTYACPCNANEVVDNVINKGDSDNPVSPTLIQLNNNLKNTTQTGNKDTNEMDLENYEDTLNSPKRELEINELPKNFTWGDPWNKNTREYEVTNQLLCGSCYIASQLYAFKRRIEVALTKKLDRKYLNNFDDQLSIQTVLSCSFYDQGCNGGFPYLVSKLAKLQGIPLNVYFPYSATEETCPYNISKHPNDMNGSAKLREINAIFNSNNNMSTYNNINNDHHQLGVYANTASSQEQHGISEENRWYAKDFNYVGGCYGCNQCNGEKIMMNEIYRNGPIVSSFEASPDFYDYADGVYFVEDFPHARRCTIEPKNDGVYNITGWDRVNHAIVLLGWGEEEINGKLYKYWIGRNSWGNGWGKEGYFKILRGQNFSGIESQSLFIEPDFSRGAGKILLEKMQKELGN
# Assay info: cell-based
# Details: live parasites, 30 min pretreatment
Readout label: IC50

entry_smiles=O=C(N[C@H](/C=C/S(=O)(=O)c1ccccc1)CCc1ccccc1)[C@@H]1CCCCN1 measured_value="80 nM"

---

Entries annotated with measured kinact
# System tested: DPAP1 (Plasmodium falciparum)
# Assay info: biochemical
# Set-up: species or system P. falciparum parasite lysate; continuous fluorogenic assay, time-dependent inactivation of DPAP1 in diluted parasite lysate, Pro-Arg-AMC 20 uM
# Details: read-out: DPAP1 / k inact ·10^3
Readout label: kinact

entry_smiles=N[C@@H](Cc1ccc2ccccc2c1)C(=O)N[C@H](/C=C/S(=O)(=O)c1ccccc1)CCc1ccccc1 measured_value="0.0067 s⁻¹"
entry_smiles=N[C@H](C(=O)N[C@H](/C=C/S(=O)(=O)c1ccccc1)CCc1ccccc1)C1Cc2ccccc2C1 measured_value="0.0027 s⁻¹"
entry_smiles=N[C@@H](Cc1c[nH]c2ccccc12)C(=O)N[C@H](/C=C/S(=O)(=O)c1ccccc1)CCc1ccccc1 measured_value="0.0017 s⁻¹"
entry_smiles=N[C@H](Cc1c[nH]c2ccccc12)C(=O)N[C@H](/C=C/S(=O)(=O)c1ccccc1)CCCCOCc1ccccc1 measured_value="0.0055 s⁻¹"

---

# System tested: DPAP3 (Plasmodium falciparum, UniProt Q8I1Y2)
# Sequence (Q8I1Y2 entry or part of it): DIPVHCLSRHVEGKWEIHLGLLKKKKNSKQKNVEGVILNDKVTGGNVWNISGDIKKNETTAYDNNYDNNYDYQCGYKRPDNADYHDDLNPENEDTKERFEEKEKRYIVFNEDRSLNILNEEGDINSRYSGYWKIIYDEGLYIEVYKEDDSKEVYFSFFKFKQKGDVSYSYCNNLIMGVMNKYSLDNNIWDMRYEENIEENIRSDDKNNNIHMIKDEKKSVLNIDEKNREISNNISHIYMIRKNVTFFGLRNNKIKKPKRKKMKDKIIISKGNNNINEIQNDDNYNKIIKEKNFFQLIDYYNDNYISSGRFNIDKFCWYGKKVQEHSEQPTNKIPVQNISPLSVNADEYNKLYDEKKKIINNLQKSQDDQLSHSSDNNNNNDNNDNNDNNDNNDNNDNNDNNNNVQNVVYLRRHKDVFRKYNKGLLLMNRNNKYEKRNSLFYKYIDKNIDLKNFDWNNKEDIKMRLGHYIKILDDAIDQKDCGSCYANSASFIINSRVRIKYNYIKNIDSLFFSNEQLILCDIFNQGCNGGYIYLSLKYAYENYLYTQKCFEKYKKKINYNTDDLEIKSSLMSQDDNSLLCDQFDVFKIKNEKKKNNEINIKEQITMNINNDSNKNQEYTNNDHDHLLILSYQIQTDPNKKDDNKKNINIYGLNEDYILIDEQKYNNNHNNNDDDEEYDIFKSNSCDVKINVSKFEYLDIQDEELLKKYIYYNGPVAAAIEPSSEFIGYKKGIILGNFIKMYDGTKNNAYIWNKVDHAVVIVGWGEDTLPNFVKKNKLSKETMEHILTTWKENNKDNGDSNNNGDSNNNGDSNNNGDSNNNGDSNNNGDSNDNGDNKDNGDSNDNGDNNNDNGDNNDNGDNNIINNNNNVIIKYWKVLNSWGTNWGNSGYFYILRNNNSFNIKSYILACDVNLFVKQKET
# Assay info: biochemical
# Set-up: gene PF3D7_0404700; recombinant, baculovirus/SF9 insect cells, purified from culture supernatant by ion exchange, Ni-NTA and size exclusion; active-site titrated; continuous fluorogenic assay, time-dependent inactivation of 0.2 nM recombinant DPAP3, Met-nLeu(o-Bzl)-ACC 2.2 uM
# Details: read-out: DPAP3 / k inact/K i ·10^−3 (M ^−1·s^−1)
Readings of log10 kinact/KI for the listed compounds
Readout label: log10 kinact/KI (log10 of the value in M⁻¹ s⁻¹)

compound="N[C@@H](Cc1ccc2ccccc2c1)C(=O)N[C@H](/C=C/S(=O)(=O)c1ccccc1)CCc1ccccc1 [2Nal‐hPhe‐VS]" system_tested="DPAP3 (Plasmodium falciparum, UniProt Q8I1Y2)" readout_label="log10 kinact/KI" measured_value=4.01
compound="N[C@@H](Cc1c[nH]c2ccccc12)C(=O)N[C@H](/C=C/S(=O)(=O)c1ccccc1)CCCCOCc1ccccc1 [L‐Trp‐nLeu(o‐Bzl)‐VS]" system_tested="DPAP3 (Plasmodium falciparum, UniProt Q8I1Y2)" readout_label="log10 kinact/KI" measured_value=5.92
compound="CCC[C@H](N)C(=O)N[C@H](/C=C/S(=O)(=O)c1ccccc1)CCc1ccccc1 [nVal‐hPhe‐VS]" system_tested="DPAP3 (Plasmodium falciparum, UniProt Q8I1Y2)" readout_label="log10 kinact/KI" measured_value=5.97
compound="N[C@@H](Cc1ccc(O)c([N+](=O)[O-])c1)C(=O)N[C@H](/C=C/S(=O)(=O)c1ccccc1)CCCCOCc1ccccc1 [Tyr(NO2)‐nLeu(o‐Bzl)‐VS]" system_tested="DPAP3 (Plasmodium falciparum, UniProt Q8I1Y2)" readout_label="log10 kinact/KI" measured_value=4.71
compound="N[C@H](C(=O)N[C@H](/C=C/S(=O)(=O)c1ccccc1)CCc1ccccc1)C1Cc2ccccc2C1 [Igl‐hPhe‐VS]" system_tested="DPAP3 (Plasmodium falciparum, UniProt Q8I1Y2)" readout_label="log10 kinact/KI" measured_value=5.31
compound="N[C@H](C(=O)N[C@H](/C=C/S(=O)(=O)c1ccccc1)CCCCOCc1ccccc1)C1Cc2ccccc2C1 [Igl‐nLeu(o‐Bzl)‐VS]" system_tested="DPAP3 (Plasmodium falciparum, UniProt Q8I1Y2)" readout_label="log10 kinact/KI" measured_value=4.54
compound="O=C(N[C@H](/C=C/S(=O)(=O)c1ccccc1)CCCCOCc1ccccc1)[C@@H]1CCCCN1 [hPro‐nLeu(o‐Bzl)‐VS]" system_tested="DPAP3 (Plasmodium falciparum, UniProt Q8I1Y2)" readout_label="log10 kinact/KI" measured_value=4.72
